As a worked illustration, we turn to MIC data collected for Haemophilus influenzae 751.

Smiles Str | MIC / µg/mL
CC[C@H]1OC(=O)[C@H](C)[C@@H](O[C@H]2C[C@@](C)(OC)[C@@H](O)[C@H](C)O2)[C@H](C)[C@@H](O[C@@H]2O[C@H](C)C[C@H](N(C)C)[C@H]2O)[C@](C)(O)C[C@@H](C)[C@@H](N2CCC(=O)CC2)[C@H](C)[C@@H](O)[C@]1(C)O | 2
CC[C@H]1OC(=O)[C@H](C)[C@@H](O[C@H]2C[C@@](C)(OC)[C@@H](O)[C@H](C)O2)[C@H](C)[C@@H](O[C@@H]2O[C@H](C)C[C@H](N(C)C)[C@H]2O)[C@](C)(O)C[C@@H](C)[C@@H](N2CCC(OC)(OC)CC2)[C@H](C)[C@@H](O)[C@]1(C)O | 2
CC[C@H]1OC(=O)[C@H](C)[C@@H](O[C@H]2C[C@@](C)(OC)[C@@H](O)[C@H](C)O2)[C@H](C)[C@@H](O[C@@H]2O[C@H](C)C[C@H](N(C)C)[C@H]2O)[C@](C)(O)C[C@@H](C)[C@@H](N2CCC(C)CC2)[C@H](C)[C@@H](O)[C@]1(C)O | 1
CC[C@H]1OC(=O)[C@H](C)[C@@H](O[C@H]2C[C@@](C)(OC)[C@@H](O)[C@H](C)O2)[C@H](C)[C@@H](O[C@@H]2O[C@H](C)C[C@H](N(C)C)[C@H]2O)[C@](C)(O)C[C@@H](C)[C@@H](N2CCCCC2)[C@H](C)[C@@H](O)[C@]1(C)O | 4
CC[C@H]1OC(=O)[C@H](C)[C@@H](O[C@H]2C[C@@](C)(OC)[C@@H](O)[C@H](C)O2)[C@H](C)[C@@H](O[C@@H]2O[C@H](C)C[C@H](N(C)C)[C@H]2O)[C@](C)(O)C[C@@H](C)[C@@H](N2CCC(C)(C)CC2)[C@H](C)[C@@H](O)[C@]1(C)O | 1
CC[C@H]1OC(=O)[C@H](C)[C@@H](O[C@H]2C[C@@](C)(OC)[C@@H](O)[C@H](C)O2)[C@H](C)[C@@H](O[C@@H]2O[C@H](C)C[C@H](N(C)C)[C@H]2O)[C@](C)(O)C[C@@H](C)[C@@H](N2CCOCC2)[C@H](C)[C@@H](O)[C@]1(C)O | 8

---

# System: Streptococcus agalactiae CMX 508
# Protocol Text: In vitro antibacterial activity, agar dilution MIC
# Assay type: cell-based
# Applied Conditions: CMX508, S. agalactiae CMX 508, Brain Heart Infusion agar, 20-24 hours, read-out: MIC

Compound | Unit | MIC
CC[C@H]1OC(=O)[C@H](C)[C@@H](O[C@H]2C[C@@](C)(OC)[C@@H](O)[C@H](C)O2)[C@H](C)[C@@H](O[C@@H]2O[C@H](C)C[C@H](N(C)C)[C@H]2O)[C@](C)(O)C[C@@H](C)[C@@H](N2CCN(C(C)=O)CC2)[C@H](C)[C@@H](O)[C@]1(C)O [Example 16] | µg/mL | 0.39
CC[C@H]1OC(=O)[C@H](C)[C@@H](O[C@H]2C[C@@](C)(OC)[C@@H](O)[C@H](C)O2)[C@H](C)[C@@H](O[C@@H]2O[C@H](C)C[C@H](N(C)C)[C@H]2O)[C@](C)(O)C[C@@H](C)[C@@H](N2CCOCC2)[C@H](C)[C@@H](O)[C@]1(C)O [Example 19] | µg/mL | 0.05
CC[C@H]1OC(=O)[C@H](C)[C@@H](O[C@H]2C[C@@](C)(OC)[C@@H](N)[C@H](C)O2)[C@H](C)[C@@H](O[C@@H]2O[C@H](C)C[C@H](N(C)C)[C@H]2O)[C@](C)(O)C[C@@H](C)[C@@H](N2CCCCC2)[C@H](C)[C@@H](O)[C@]1(C)O [Example 31] | µg/mL | 0.05
CC[C@H]1OC(=O)[C@H](C)[C@@H](O[C@H]2C[C@@](C)(OC)[C@@H](O)[C@H](C)O2)[C@H](C)[C@@H](O[C@@H]2O[C@H](C)C[C@H](N(C)C)[C@H]2O)[C@](C)(O)C[C@@H](C)[C@@H](N2CCC(C)CC2)[C@H](C)[C@@H](O)[C@]1(C)O [Example 6] | µg/mL | 0.1

---

Below, each entry is listed with its recorded MIC.
# System: Staphylococcus aureus CMX 503A
# Protocol Text: In vitro antibacterial activity, agar dilution MIC
# Type: cell-based
# Applied Conditions: CMX503A, S. aureus CMX 503A, Brain Heart Infusion agar, 20-24 hours, read-out: MIC
Quantity Measured: MIC (µg/mL)

Smiles Str | Quantity Measured | Result Number
CC[C@H]1OC(=O)[C@H](C)[C@@H](O[C@H]2C[C@@](C)(OC)[C@@H](O)[C@H](C)O2)[C@H](C)[C@@H](O[C@@H]2O[C@H](C)C[C@H](N(C)C)[C@H]2O)[C@](C)(O)C[C@@H](C)[C@@H](N2CCN(C(=O)OCc3ccccc3)CC2)[C@H](C)[C@@H](O)[C@]1(C)O | MIC | 0.78
CC[C@H]1OC(=O)[C@H](C)[C@@H](O[C@H]2C[C@@](C)(OC)[C@@H](O)[C@H](C)O2)[C@H](C)[C@@H](O[C@@H]2O[C@H](C)C[C@H](N(C)C)[C@H]2O)[C@](C)(O)C[C@@H](C)[C@@H](N2CCN(C(C)=O)CC2)[C@H](C)[C@@H](O)[C@]1(C)O | MIC | 1.56
CC[C@H]1OC(=O)[C@H](C)[C@@H](O[C@H]2C[C@@](C)(OC)[C@@H](O)[C@H](C)O2)[C@H](C)[C@@H](O[C@@H]2O[C@H](C)C[C@H](N(C)C)[C@H]2O)[C@](C)(O)C[C@@H](C)[C@@H](N2CCCCC2)[C@H](C)[C@@H](O)[C@]1(C)O | MIC | 0.39
CC[C@H]1OC(=O)[C@H](C)[C@@H](O[C@H]2C[C@@](C)(OC)[C@@H](O)[C@H](C)O2)[C@H](C)[C@@H](O[C@@H]2O[C@H](C)C[C@H](N(C)C)[C@H]2O)[C@](C)(O)C[C@@H](C)[C@@H](N2CCOCC2)[C@H](C)[C@@H](O)[C@]1(C)O | MIC | 0.39
CC[C@H]1OC(=O)[C@H](C)[C@@H](O[C@H]2C[C@@](C)(OC)[C@H](N)[C@H](C)O2)[C@H](C)[C@@H](O[C@@H]2O[C@H](C)C[C@H](N(C)C)[C@H]2O)[C@](C)(O)C[C@@H](C)[C@@H](N2CCCCC2)[C@H](C)[C@@H](O)[C@]1(C)O | MIC | 0.39

---

Below, each entry is listed with its recorded MIC.
# Test system: Staphylococcus aureus A5177
# Protocol Text: In vitro antibacterial activity, agar dilution MIC
# Format: cell-based
# Applied Conditions: S. aureus A5177, Brain Heart Infusion agar, 20-24 hours, read-out: MIC

Compound | Target | MIC
CC[C@H]1OC(=O)[C@H](C)[C@@H](O[C@H]2C[C@@](C)(OC)[C@@H](O)[C@H](C)O2)[C@H](C)[C@@H](O[C@@H]2O[C@H](C)C[C@H](N(C)C)[C@H]2O)[C@](C)(O)C[C@@H](C)[C@@H](N2CCCCCC2)[C@H](C)[C@@H](O)[C@]1(C)O [Example 2] | Staphylococcus aureus A5177 | 0.31 µg/mL
CC[C@H]1OC(=O)[C@H](C)[C@@H](O[C@H]2C[C@@](C)(OC)[C@@H](O)[C@H](C)O2)[C@H](C)[C@@H](O[C@@H]2O[C@H](C)C[C@H](N(C)C)[C@H]2O)[C@](C)(O)C[C@@H](C)[C@@H](N2CCN(C(C)=O)CC2)[C@H](C)[C@@H](O)[C@]1(C)O [Example 16] | Staphylococcus aureus A5177 | 50 µg/mL
CC[C@H]1OC(=O)[C@H](C)[C@@H](O[C@H]2C[C@@](C)(OC)[C@@H](O)[C@H](C)O2)[C@H](C)[C@@H](O[C@@H]2O[C@H](C)C[C@H](N(C)C)[C@H]2O)[C@](C)(O)C[C@@H](C)[C@@H](N2CCCC(C)(C)C2)[C@H](C)[C@@H](O)[C@]1(C)O [Example 1] | Staphylococcus aureus A5177 | 6.2 µg/mL
CC[C@H]1OC(=O)[C@H](C)[C@@H](O[C@H]2C[C@@](C)(OC)[C@@H](O)[C@H](C)O2)[C@H](C)[C@@H](O[C@@H]2O[C@H](C)C[C@H](N(C)C)[C@H]2O)[C@](C)(O)C[C@@H](C)[C@@H](N2CCCCC2)[C@H](C)[C@@H](O)[C@]1(C)O [Example 5] | Staphylococcus aureus A5177 | 6.2 µg/mL
CC[C@H]1OC(=O)[C@H](C)[C@@H](O[C@H]2C[C@@](C)(OC)[C@@H](O)[C@H](C)O2)[C@H](C)[C@@H](O[C@@H]2O[C@H](C)C[C@H](N(C)C)[C@H]2O)[C@](C)(O)C[C@@H](C)[C@@H](N2CCCC2)[C@H](C)[C@@H](O)[C@]1(C)O [Example 3] | Staphylococcus aureus A5177 | 25 µg/mL
CC[C@H]1OC(=O)[C@H](C)[C@@H](O[C@H]2C[C@@](C)(OC)[C@@H](O)[C@H](C)O2)[C@H](C)[C@@H](O[C@@H]2O[C@H](C)C[C@H](N(C)C)[C@H]2O)[C@](C)(O)C[C@@H](C)[C@@H](N2CCN(C(=O)OCc3ccccc3)CC2)[C@H](C)[C@@H](O)[C@]1(C)O [Example 18] | Staphylococcus aureus A5177 | 12.5 µg/mL
CC[C@H]1OC(=O)[C@H](C)[C@@H](O[C@H]2C[C@@](C)(OC)[C@H](N)[C@H](C)O2)[C@H](C)[C@@H](O[C@@H]2O[C@H](C)C[C@H](N(C)C)[C@H]2O)[C@](C)(O)C[C@@H](C)[C@@H](N2CCCCC2)[C@H](C)[C@@H](O)[C@]1(C)O [Example 32] | Staphylococcus aureus A5177 | 6.2 µg/mL

Source: patent US5075289A
